Data credit: ChEMBL document CHEMBL1201862

study_target: Ubiquitin-conjugating enzyme E2 N (Homo sapiens);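 note: Dose-response confirmation in a TR-FRET assay detecting UBC13-driven polyubiquitin chain formation, inhibition measured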
Sequence (P61088 whole entry): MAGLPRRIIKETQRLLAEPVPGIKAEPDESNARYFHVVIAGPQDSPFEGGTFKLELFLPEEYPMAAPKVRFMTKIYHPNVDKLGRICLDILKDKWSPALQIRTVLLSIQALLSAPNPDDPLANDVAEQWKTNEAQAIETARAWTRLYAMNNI
Assay type: functional
Calls of active or inactive are those of the source.
IC50 overview

Here is how some compounds turned out for IC50.
compound=Cc1c(CCOC(=O)CC23CC4CC(CC(C4)C2)C3)sc[n+]1CC(=O)c1ccccc1 property_measured=IC50 value_measured="> 20 µM (inactive)"
compound="Cc1cccc(N(C(=O)c2snc(C(N)=O)c2N)C(C(=O)NCC2CCCO2)c2cccs2)c1 (stereo not drawn)" property_measured=IC50 value_measured="> 20 µM (inactive)"

Could you now look at the following compound, please?
Problem: Suppose we examine the compound "Cc1ccc(S(=O)(=O)NNC(=O)C(=O)NNc2ccccn2)cc1" ; what IC50 value has been reported?
Solution: > 20 µM (inactive)

====

study_target: Fatty acid synthase (Homo sapiens)
Sequence (P49327 whole entry): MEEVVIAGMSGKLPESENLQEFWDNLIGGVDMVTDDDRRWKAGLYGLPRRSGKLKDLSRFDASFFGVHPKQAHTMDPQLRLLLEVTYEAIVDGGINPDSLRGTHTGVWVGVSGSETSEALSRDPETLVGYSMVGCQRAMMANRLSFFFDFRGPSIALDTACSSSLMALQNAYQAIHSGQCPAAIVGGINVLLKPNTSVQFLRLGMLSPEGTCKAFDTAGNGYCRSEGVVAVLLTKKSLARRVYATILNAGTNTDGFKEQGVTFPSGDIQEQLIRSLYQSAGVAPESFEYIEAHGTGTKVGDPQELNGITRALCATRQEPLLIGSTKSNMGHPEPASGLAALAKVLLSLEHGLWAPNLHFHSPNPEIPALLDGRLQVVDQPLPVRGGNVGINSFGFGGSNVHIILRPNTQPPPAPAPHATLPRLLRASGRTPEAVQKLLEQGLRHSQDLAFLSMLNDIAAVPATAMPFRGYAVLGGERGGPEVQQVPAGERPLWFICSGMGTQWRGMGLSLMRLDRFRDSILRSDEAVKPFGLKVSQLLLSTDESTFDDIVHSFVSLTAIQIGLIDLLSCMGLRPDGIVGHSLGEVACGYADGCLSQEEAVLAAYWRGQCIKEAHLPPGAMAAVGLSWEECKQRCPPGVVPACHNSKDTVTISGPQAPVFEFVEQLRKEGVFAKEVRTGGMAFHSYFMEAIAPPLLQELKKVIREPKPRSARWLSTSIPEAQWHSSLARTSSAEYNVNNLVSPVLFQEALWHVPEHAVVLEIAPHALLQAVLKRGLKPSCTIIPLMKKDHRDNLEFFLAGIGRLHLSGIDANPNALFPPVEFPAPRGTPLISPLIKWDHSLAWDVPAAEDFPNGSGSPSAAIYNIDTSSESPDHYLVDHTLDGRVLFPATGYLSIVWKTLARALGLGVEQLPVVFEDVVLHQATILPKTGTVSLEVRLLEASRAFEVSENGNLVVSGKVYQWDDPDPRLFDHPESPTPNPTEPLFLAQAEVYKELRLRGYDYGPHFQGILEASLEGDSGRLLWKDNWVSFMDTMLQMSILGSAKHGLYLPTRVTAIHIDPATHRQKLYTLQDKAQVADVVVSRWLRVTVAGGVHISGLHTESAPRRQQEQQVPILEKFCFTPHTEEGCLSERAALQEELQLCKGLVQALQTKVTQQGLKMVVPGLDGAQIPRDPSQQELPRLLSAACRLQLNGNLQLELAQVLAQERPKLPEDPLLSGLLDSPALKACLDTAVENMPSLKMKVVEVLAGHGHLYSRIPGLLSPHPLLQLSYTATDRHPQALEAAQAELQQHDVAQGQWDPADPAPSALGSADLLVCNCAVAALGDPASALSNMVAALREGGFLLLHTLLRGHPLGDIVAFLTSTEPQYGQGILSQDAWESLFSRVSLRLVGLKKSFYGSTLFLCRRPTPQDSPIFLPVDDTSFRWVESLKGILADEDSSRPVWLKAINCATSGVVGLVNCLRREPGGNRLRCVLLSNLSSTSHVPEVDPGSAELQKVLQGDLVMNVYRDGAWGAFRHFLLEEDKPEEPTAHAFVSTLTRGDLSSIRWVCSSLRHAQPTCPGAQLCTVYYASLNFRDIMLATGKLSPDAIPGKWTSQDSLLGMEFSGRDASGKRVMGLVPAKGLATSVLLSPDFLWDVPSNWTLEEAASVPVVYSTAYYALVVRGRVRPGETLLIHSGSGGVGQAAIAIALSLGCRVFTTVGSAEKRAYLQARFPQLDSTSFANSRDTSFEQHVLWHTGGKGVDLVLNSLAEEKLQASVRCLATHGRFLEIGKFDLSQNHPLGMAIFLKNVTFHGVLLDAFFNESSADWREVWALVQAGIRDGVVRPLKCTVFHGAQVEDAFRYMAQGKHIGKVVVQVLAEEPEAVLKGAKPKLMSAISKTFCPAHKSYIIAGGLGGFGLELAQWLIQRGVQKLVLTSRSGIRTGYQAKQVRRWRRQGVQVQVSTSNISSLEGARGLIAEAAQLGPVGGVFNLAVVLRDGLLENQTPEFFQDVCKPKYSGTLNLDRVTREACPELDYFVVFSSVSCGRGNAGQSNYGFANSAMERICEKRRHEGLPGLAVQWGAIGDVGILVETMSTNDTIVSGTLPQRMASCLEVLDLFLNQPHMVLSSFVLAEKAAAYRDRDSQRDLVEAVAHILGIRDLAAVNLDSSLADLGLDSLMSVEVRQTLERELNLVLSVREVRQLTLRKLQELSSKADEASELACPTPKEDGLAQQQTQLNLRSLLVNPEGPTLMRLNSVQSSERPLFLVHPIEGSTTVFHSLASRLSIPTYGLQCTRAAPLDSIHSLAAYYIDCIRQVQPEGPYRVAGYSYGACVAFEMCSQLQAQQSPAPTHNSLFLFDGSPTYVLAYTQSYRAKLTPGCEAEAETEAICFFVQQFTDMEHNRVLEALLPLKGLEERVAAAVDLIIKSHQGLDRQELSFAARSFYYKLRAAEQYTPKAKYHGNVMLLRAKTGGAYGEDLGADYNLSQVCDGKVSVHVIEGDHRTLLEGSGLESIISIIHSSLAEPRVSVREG
procedure_details: inhibition of human FAS-TE enzyme activity – biochemical, endpoint fluorescence intensity, uHTS hits, dose response (AID 624327);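 note: fluorescence from hydrolysis of an O-methyl fluorescein acyl ester substrate by the enzyme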
Assay type: functional
The source made the active and inactive calls.
Overview of reported IC50 across a group of compounds:

See these solved cases before continuing.
compound="COc1ccc(N(C(=O)CCl)C(C(=O)NCCc2ccccc2)c2cccs2)cc1Cl (stereo not given)" study_target="Fatty acid synthase (Homo sapiens)" property_measured=IC50 value_measured="10.2 µM (active)"
compound=O=C(Nc1cccc([N+](=O)[O-])c1)NC1CCCCCCC1 study_target="Fatty acid synthase (Homo sapiens)" property_measured=IC50 value_measured="14.8 µM (active)"
compound=CSCC[C@H](NC(=O)c1ccc(Cl)c([N+](=O)[O-])c1)c1nc2ccccc2[nH]1 study_target="Fatty acid synthase (Homo sapiens)" property_measured=IC50 value_measured="11.1 µM (active)"
compound=CC(C)c1ccc(CSc2ccc(S(=O)(=O)N3CCOCC3)cn2)cc1 study_target="Fatty acid synthase (Homo sapiens)" property_measured=IC50 value_measured="5.98 µM (active)"

Consider the record given below.
Problem: Can you look up the measured IC50 of "CCc1ccc(C(=O)COC(=O)c2cc([N+](=O)[O-])ccc2N2CCOCC2)cc1" for me?
Solution: 1.75 µM (active)

====

study_target: Kappa-type opioid receptor (Homo sapiens, UniProt P41145)
Sequence (P41145 whole entry): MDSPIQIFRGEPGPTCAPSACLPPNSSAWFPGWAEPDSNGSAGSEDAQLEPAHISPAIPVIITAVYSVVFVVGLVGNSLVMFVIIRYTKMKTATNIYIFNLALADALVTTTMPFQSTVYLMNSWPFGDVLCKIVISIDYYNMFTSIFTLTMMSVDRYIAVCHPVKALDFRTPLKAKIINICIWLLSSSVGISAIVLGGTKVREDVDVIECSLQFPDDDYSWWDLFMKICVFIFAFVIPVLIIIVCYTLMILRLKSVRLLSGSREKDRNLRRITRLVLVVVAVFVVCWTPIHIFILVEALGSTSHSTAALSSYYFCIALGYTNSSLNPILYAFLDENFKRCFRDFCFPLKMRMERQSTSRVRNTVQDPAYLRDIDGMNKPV
Type: functional
Activity calls are given as the source filed them.
Give your call using only these classes: active, inactive

// known answers, use as guide
compound="COc1cc(OC)c(OC)cc1CCC(C)NCCC(c1ccccc1)c1ccccc1 (stereo not given)" study_target="Kappa-type opioid receptor (Homo sapiens, UniProt P41145)" label_value=active
compound=O=C(N/N=C(\c1ccccc1)c1cccnc1)c1cccc(F)c1 study_target="Kappa-type opioid receptor (Homo sapiens, UniProt P41145)" label_value=active
compound=Cc1cccnc1Nc1nc(-c2ccccn2)cs1 study_target="Kappa-type opioid receptor (Homo sapiens, UniProt P41145)" label_value=active

Problem: Per the assay record, what outcome was assigned to "CCCCN(CCCNC(=O)C1CCN(S(=O)(=O)N2CCOCC2)CC1)c1ccccc1" ?
Solution: inactive

Problem: # lookup: test call for "Cc1cc(OCC(=O)Nc2ccc(S(=O)(=O)N3CCN(C)CC3)cc2)cc(C)c1Cl"
Solution: active

====

study_target: Ras and Rab interactor 1/Tyrosine-protein kinase ABL1 (Homo sapiens, UniProt P00519+Q13671);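 note: biochemical TR-FRET dose-response test measuring inhibition of binding between Rin1 and Abl proteins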
Sequence (P00519 whole entry): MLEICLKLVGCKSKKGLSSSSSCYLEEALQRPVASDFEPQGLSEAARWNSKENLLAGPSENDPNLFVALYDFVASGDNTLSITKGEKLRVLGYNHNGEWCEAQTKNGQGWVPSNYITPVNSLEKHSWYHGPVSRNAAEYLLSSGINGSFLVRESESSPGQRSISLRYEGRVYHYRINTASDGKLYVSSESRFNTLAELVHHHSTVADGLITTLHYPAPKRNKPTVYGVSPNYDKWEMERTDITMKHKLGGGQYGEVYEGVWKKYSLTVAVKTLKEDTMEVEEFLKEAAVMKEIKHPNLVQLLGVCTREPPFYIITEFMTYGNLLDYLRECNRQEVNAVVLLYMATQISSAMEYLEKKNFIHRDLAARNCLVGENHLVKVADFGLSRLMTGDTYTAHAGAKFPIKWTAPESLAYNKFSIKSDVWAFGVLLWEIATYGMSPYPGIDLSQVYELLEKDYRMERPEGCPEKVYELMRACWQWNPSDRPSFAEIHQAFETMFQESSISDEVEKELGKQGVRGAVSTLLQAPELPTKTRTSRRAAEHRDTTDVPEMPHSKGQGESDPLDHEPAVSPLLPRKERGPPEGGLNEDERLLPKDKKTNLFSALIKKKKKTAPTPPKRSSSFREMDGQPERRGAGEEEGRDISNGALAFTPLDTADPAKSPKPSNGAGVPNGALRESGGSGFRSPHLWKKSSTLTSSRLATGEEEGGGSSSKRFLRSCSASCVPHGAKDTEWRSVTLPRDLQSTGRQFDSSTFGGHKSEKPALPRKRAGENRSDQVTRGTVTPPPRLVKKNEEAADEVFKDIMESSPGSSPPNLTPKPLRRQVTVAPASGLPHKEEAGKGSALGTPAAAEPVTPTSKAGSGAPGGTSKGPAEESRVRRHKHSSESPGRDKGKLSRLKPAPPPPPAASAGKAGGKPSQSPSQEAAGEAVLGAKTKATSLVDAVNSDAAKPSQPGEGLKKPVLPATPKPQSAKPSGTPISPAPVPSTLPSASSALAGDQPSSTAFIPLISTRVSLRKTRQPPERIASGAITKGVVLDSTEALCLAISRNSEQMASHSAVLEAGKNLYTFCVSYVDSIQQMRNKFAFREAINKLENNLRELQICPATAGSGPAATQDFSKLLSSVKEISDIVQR
Sequence (Q13671 whole entry): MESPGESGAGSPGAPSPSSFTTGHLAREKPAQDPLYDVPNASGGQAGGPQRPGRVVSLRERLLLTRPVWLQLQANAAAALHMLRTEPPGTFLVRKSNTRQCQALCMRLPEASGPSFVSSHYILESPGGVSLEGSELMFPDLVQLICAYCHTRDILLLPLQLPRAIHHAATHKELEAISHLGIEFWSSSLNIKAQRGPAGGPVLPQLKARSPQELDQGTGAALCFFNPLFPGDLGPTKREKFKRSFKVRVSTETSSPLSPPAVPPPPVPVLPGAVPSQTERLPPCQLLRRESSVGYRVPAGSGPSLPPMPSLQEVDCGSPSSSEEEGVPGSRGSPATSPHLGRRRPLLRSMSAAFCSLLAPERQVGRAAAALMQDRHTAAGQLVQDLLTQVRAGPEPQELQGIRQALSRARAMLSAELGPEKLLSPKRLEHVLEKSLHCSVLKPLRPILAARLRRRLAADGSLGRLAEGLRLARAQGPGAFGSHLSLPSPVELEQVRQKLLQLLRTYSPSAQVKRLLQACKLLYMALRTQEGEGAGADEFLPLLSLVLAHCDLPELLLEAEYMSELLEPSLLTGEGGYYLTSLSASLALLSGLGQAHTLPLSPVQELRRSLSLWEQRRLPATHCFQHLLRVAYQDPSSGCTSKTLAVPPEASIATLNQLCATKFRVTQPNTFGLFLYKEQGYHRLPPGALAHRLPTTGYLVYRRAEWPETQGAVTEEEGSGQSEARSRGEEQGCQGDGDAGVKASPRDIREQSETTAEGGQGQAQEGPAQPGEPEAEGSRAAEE
Assay type: functional
Calls of active or inactive are those of the source.
Entry note: the call must match one of TRUE (active), FALSE (inactive)

Before answering, review these 3 worked examples.
compound="CCCCN1C(=O)N(C)C2NC(=O)NC21 (centres undefined)" label_value=TRUE
compound="COc1ccc(-n2nnnc2C(C2CC2)N2CCC(n3c(O)nc4ccccc43)CC2)cc1 (centres undefined)" label_value=FALSE
compound="Cc1cccc(C)c1NC(=O)CCCCCC1NC(=O)NC1C (centres undefined)" label_value=TRUE

Switching to the query record.
Problem: Which outcome did this test record for the compound "COC(=O)c1ccc(CSc2nnc(-c3ccncc3)o2)o1" ?
Solution: FALSE
